- System: EKVX NSCLC
- ASSAY TEXT: NCI tumour cell line growth inhibition, 48 h
READOUT TYPE: TGI

Some solved entries appear below for comparison.
>>> result_value("N[C@H](C(=O)O)[C@@H]1CC(Cl)=NO1")
"303 µM"
>>> result_value("CCOc1cccc(/C=N/NC(=O)c2cccc(Nc3ccnc(C(F)(F)F)c3)c2)c1O")
"> 64.5 µM"
>>> result_value("C/C(=N\\NS(=O)(=O)c1ccc(C)cc1)c1ccccn1")
"> 100 µM"
>>> result_value("C=CC[P@]1(=O)O[C@H](c2ccccc2)[C@H](C)N1C")
"> 100 µM"
>>> result_value("ONC1=Nc2cc(Cl)ccc2C(=S)N2CSCC12 (stereo unspecified)")
"> 100 µM"

# context switch: different compound, same TGI
Query: Specify measured TGI for CS(=O)(=O)Nc1ccc2ccccc2c1-c1c(NS(C)(=O)=O)ccc2ccccc12 .
Result: > 25 µM
